Test system: COLO 205
Assay: NCI tumour cell line growth inhibition, 48 h
Calls of active or inactive are those of the source. Rule as the data show it: active = GI50 up to about 1.1 µM and inactive = higher.
measure.name: GI50

Below, 4 molecules whose answers are already recorded.
| molecule | result |
| --- | --- |
| COC(=O)C1(Cc2cccc(C)c2)Cc2c(C)cccc2C1=O (stereo not given) | 37.2 µM (inactive) |
| O=S(=O)(OI(OI(OS(=O)(=O)C(F)(F)F)c1ccccc1)c1ccccc1)C(F)(F)F | 51.2 µM (inactive) |
| COc1cccc(/C=C/c2cnc3ccccc3n2)c1OC | 48.3 µM (inactive) |
| O=C(CC1Sc2ccccc2NC1=O)Nc1ccccc1[N+](=O)[O-] (stereo not given) | > 100 µM (inactive) |

Alright, here's another molecule for you.
Form field GI50, entry NC(Cc1n[nH]c2ccccc12)C(=O)O (stereo not given) : > 100 µM (inactive)

----------
Tested on: SNB-19
Experiment: NCI tumour cell line growth inhibition, 48 h
Activity calls are given as the source filed them. No stated cut-off is given here; in the data, active = GI50 up to about 1.1 µM and inactive = higher.
Recorded GI50, one value per entry.

Below, 5 molecules whose answers are already recorded.
| molecule | measure.name | result |
| --- | --- | --- |
| COCn1c2ccc(OC(C)=O)cc2c2c(=O)oc(N(C)C)nc21 | GI50 | > 100 µM (inactive) |
| CN(C)c1ccc(C2SCC(=O)N2c2ccc(Oc3ccc(Cl)cc3)c(Cl)c2)cc1 (stereo not drawn) | GI50 | 20.3 µM (inactive) |
| Cc1[nH]c(=O)[nH]c(=O)c1/C=C/C(=O)NC(CO)CC(C)C (stereo not drawn) | GI50 | 356 µM (inactive) |
| NC(Cc1ccccc1)C(=O)NC(Cc1ccccc1)NC(=O)C(Cc1c[nH]c2ccccc12)C(=O)O (stereo not drawn) | GI50 | > 100 µM (inactive) |
| COc1ccc(C(=O)C/C(=N/NC(N)=S)C(=O)Nc2ccccc2)cc1 | GI50 | > 100 µM (inactive) |

Form field GI50, entry CC1(Cl)CC2C(CC1Sc1nnnn1-c1ccccc1)C2(C)C (stereo not drawn) : 83.2 µM (inactive)

Form field GI50, entry Cc1ccc2c(n1)NC(=O)C(Cc1ccccc1)(N=[N+]=[N-])C2=O (stereo not drawn) : > 100 µM (inactive)

----------
System: SF-539
Assay: NCI tumour cell line growth inhibition, 48 h
Calls of active or inactive are those of the source. Rule as the data show it: active = GI50 up to about 1.1 µM and inactive = higher.
measure.name: GI50

| molecule | system | GI50 |
| --- | --- | --- |
| COc1cccc(C2C(C(=O)Nc3cc(=O)n(C)c(=O)n3C)=C(C)NC(C)=C2C(=O)Nc2cc(=O)n(C)c(=O)n2C)c1O | SF-539 | > 100 µM (inactive) |
| CC(/C(=N/NC(=O)C(N)=O)c1c(Cl)ccc(Cl)c1O)C1(O)C(=O)Nc2ccccc21 (stereo unspecified) | SF-539 | 32 µM (inactive) |
| CCOC(=O)c1nc2cc(F)c(N3CCOCC3)cc2[nH]c1=O | SF-539 | > 100 µM (inactive) |

# `COc1ccccc1/C=C1\S/C(=N/Nc2nc(C)c(C(C)=O)s2)NC1=O` with SF-539: GI50 is 44.1 µM (inactive)

# `CC(=O)Nc1ccc2c(C)c3c(nc2n1)[nH]c1ccccc13` with SF-539: GI50 is 57.3 µM (inactive)

# Cc1cc2c(cc1C)NC(=O)C(NC(=O)/C=C/c1ccccc1)C=N2 (stereo unspecified) with SF-539: GI50 is 24.8 µM (inactive)

# CC(C)CC1N=C(OCc2ccccc2)OC1=O (stereo unspecified) with SF-539: GI50 is > 100 µM (inactive)

# `CC(C)OC(=O)c1ccc(NCc2cc(O)ccc2O)cc1` with SF-539: GI50 is 1.53 µM (inactive)

# N#CC1=C(c2ccccc2)OC2(N)OC(c3ccccc3)=C(C#N)C12C#N (stereo unspecified) with SF-539: GI50 is > 100 µM (inactive)

# `C=C(C)[C@@H]1C[C@H]2O[C@](O)(C(=C)CC(=O)/C=C(/C)C[C@@H]3OC(=O)[C@]24O[C@@H]34)[C@H]1O` with SF-539: GI50 is > 100 µM (inactive)

# `O=c1oc2ccccc2cc1-c1cn2c(n1)sc1ccccc12` with SF-539: GI50 is > 100 µM (inactive)

# COc1c(OC2OC(CO)C(O)C(O)C2O)cc2c(c1OC)-c1ccc(OC)c(=O)cc1[C@@H](NC(C)=O)CC2 (stereo partly specified) with SF-539: GI50 is 64.9 µM (inactive)

# CC(C)(C)OC(=O)NCCCCC(N)C(N)=O (stereo unspecified) with SF-539: GI50 is > 100 µM (inactive)

# O=[N+]([O-])c1cccc(C2ON2C2CCCCC2)c1 (stereo unspecified) with SF-539: GI50 is 22.5 µM (inactive)

All figures here come from ChEMBL document CHEMBL1201862.
